The entries below come with measured IC50 values attached.
tested on: MET F1200I (Homo sapiens, UniProt P08581, F1200I)
Construct: purchased Signalchem M52-12GG/Y767-2
Sequence (P08581 25-1390 F1200I): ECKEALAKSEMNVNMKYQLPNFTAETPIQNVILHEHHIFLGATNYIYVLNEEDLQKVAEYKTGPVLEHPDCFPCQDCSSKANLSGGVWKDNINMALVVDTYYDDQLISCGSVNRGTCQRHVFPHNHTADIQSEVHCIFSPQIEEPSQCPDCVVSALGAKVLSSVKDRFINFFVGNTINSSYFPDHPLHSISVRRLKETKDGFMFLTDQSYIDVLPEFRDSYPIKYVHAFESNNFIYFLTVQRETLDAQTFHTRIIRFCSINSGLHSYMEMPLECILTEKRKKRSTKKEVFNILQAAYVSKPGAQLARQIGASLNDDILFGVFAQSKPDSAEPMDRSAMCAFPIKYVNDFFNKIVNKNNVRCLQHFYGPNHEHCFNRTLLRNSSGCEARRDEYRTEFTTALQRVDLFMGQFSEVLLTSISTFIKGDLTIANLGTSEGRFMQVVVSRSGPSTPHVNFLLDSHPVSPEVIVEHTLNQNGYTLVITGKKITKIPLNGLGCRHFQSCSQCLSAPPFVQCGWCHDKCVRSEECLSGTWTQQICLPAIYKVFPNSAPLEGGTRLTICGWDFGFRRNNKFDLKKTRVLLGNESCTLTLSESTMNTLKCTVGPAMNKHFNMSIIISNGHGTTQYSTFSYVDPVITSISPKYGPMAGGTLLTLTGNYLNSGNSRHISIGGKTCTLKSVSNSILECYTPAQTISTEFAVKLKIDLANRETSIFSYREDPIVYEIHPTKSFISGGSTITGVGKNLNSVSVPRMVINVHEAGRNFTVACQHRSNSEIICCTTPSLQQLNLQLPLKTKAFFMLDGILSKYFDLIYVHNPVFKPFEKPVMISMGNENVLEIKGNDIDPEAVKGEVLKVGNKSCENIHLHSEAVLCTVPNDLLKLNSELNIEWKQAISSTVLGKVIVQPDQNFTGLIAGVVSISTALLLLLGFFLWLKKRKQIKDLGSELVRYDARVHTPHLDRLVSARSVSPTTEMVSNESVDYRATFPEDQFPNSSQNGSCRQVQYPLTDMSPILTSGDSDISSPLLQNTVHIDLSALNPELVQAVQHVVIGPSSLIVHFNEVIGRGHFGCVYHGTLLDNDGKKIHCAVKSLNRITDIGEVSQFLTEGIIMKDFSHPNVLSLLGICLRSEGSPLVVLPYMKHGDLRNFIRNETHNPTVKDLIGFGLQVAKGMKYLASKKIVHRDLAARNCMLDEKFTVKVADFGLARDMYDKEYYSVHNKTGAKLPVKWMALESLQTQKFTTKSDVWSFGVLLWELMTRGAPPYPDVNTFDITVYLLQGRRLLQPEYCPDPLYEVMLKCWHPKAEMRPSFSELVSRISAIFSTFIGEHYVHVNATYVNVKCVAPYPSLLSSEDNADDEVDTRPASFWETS
method summary: Kinase inhibition experiment (HTRF KinEASE-TK kit), mutant MET F1200I
Type: biochemical
condition info: 10 concentrations, 3-fold dilution
Method: The activity of the compounds was determined by detecting the residual amount of ATP after reacting with wild-type or mutant MET protein kinase by using an HTRF KinEASE-TK kit. […] 5) the fluorescence signals at 615 nm (cryptate) and 665 nm (XL665) were read with Envision 2104 or TECAN. […]
measured quantity: IC50 (nM)

>>> value_reported("CC[C@H](CO)Nc1n[nH]c2nccc(Oc3ccc(NC(=O)c4cccc(-c5ccc(F)cc5)[n+]4[O-])cc3F)c12 [Final product 5]")
10.8
>>> value_reported("C[C@@H](Nc1n[nH]c2nccc(Oc3ccc(NC(=O)c4cccc(-c5ccc(F)cc5)[n+]4[O-])cc3F)c12)C(C)(C)O [Final product 16]")
25.8
>>> value_reported("O=C(Nc1ccc(Oc2ccnc3[nH]nc(NCC4(CO)CC(O)C4)c23)c(F)c1)c1cccc(-c2ccc(F)cc2)[n+]1[O-] (stereo not drawn) [Final product 20]")
20.1

====

tested on: wild type (WT) MET kinase (Homo sapiens, UniProt P08581)
Construct: purchased Carna 08-151
Sequence (P08581 25-1390): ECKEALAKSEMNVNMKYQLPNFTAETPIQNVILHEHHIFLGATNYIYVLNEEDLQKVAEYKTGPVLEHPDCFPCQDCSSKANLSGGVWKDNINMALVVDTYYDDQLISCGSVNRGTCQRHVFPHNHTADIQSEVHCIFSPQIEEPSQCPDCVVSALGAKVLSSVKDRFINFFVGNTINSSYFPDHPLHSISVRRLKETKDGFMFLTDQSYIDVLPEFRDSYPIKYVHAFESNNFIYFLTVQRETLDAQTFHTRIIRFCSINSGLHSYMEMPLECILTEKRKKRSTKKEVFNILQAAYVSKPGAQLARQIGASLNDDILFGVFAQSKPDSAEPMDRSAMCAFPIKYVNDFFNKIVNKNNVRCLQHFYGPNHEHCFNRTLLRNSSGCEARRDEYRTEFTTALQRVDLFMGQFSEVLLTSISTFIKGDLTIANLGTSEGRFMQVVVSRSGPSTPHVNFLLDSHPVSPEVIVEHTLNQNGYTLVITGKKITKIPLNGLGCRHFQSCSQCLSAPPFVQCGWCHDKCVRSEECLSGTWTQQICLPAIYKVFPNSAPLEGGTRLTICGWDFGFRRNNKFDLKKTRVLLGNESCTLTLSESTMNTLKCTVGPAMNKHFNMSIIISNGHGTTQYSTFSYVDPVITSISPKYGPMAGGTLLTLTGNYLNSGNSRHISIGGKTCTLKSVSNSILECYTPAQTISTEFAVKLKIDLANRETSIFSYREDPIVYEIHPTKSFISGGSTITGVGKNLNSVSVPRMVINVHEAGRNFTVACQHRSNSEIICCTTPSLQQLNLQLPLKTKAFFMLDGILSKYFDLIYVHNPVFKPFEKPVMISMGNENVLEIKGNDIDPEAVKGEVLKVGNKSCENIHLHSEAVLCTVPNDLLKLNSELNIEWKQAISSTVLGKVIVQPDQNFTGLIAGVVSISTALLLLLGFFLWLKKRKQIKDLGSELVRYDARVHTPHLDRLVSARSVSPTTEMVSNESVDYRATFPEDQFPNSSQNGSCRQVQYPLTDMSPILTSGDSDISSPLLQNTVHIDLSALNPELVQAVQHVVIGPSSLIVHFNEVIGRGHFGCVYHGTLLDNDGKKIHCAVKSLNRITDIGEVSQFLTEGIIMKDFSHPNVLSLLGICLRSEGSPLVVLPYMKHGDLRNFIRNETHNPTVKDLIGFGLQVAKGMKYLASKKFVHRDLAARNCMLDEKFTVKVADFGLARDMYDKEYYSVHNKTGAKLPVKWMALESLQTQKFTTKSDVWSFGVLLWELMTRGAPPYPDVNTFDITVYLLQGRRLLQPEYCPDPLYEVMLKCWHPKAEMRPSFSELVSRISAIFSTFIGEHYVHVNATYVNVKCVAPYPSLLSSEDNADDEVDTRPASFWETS
method summary: Kinase inhibition experiment (HTRF KinEASE-TK kit), wild-type MET
Assay type: biochemical
condition info: 10 concentrations, 3-fold dilution
Method: The activity of the compounds was determined by detecting the residual amount of ATP after reacting with wild-type or mutant MET protein kinase by using an HTRF KinEASE-TK kit. […] 5) the fluorescence signals at 615 nm (cryptate) and 665 nm (XL665) were read with Envision 2104 or TECAN. […]
measured quantity: log10 IC50 (log10 of the value in nM)

>>> value_reported("O=C(Nc1ccc(Oc2ccnc3[nH]nc(N[C@H]4C[C@H](O)C4)c23)c(F)c1)c1cccc(-c2ccc(F)cc2)[n+]1[O-] [Final product 23]")
0.52
>>> value_reported("O=C(Nc1ccc(Oc2ccnc3[nH]nc(NC4(CO)CC4)c23)c(F)c1)c1cccc(-c2ccc(F)cc2)[n+]1[O-] [Final product 22]")
0.77
>>> value_reported("O=C(Nc1ccc(Oc2ccnc3[nH]nc(N4CCO[C@H](CO)C4)c23)c(F)c1)c1cccc(-c2ccc(F)cc2)[n+]1[O-] [Final product 35]")
0.30
>>> value_reported("O=C(Nc1ccc(Oc2ccnc3[nH]nc(NC4COCC4O)c23)c(F)c1)c1cccc(-c2ccc(F)cc2)[n+]1[O-] (stereo not drawn) [Final product 24]")
0.40
>>> value_reported("CC(C)(O)CNc1n[nH]c2nccc(Oc3ccc(NC(=O)c4cccc(-c5ccc(F)cc5)[n+]4[O-])cc3F)c12 [Final product 10]")
0.67
>>> value_reported("C[C@H](CO)Nc1n[nH]c2nccc(Oc3ccc(NC(=O)c4ccc(N(C)C)c(-c5ccc(F)cc5)[n+]4[O-])cc3F)c12 [Final product 89]")
0.72
>>> value_reported("O=C(Nc1ccc(Oc2ccnc3[nH]cc(-c4cccnc4)c23)c(F)c1)c1ccc(Cl)c(-c2ccc(F)cc2)[n+]1[O-] [Final product 185, reference compound]")
1.31
>>> value_reported("CC[C@H](CO)Nc1n[nH]c2nccc(Oc3ccc(NC(=O)c4ccc(Cl)c(-c5ccc(F)cc5)[n+]4[O-])cc3F)c12 [Final product 58]")
0.69
>>> value_reported("C[C@H](CO)Nc1n[nH]c2nccc(Oc3ccc(NC(=O)c4cccc(-c5ccc(F)cc5)[n+]4[O-])cc3Cl)c12 [Final product 97]")
0.52
>>> value_reported("CCc1ccc(C(=O)Nc2ccc(Oc3ccnc4[nH]nc(N[C@H](C)CO)c34)c(F)c2)[n+]([O-])c1-c1ccc(F)cc1 [Final product 80]")
0.18
>>> value_reported("C[C@H](CO)Cn1ccc2ncnc(Oc3ccc(NC(=O)c4cccc(-c5ccc(F)cc5)[n+]4[O-])cc3F)c21 [Final product 169]")
0.26
>>> value_reported("O=C(Nc1ccc(Oc2ccnc3[nH]nc(N4CC5(CC(O)C5)C4)c23)c(F)c1)c1cccc(-c2ccc(F)cc2)[n+]1[O-] [Final product 36]")
0.60

This collection of values is drawn from patent US20250092033A1.
